Recorded values, source patent US20080318925A1.

- TESTED TARGET: GABAA2 receptors (α2, β3, γ3 receptor subunits transfected into Sf9 cells) (Homo sapiens, UniProt P47869+Q99928)
- Sequence (P47869 29-451): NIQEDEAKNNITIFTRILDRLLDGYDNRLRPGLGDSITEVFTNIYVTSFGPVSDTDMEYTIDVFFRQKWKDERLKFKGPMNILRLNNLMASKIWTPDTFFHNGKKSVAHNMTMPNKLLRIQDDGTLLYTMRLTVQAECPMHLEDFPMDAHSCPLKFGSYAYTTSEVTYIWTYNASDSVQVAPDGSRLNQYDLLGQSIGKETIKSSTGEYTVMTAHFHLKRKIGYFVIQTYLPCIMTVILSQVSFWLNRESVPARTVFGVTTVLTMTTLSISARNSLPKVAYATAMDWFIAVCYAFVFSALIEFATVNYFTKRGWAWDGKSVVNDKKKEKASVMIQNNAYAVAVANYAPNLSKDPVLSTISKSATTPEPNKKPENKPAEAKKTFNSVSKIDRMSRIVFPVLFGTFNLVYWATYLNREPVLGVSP
- Sequence (P28472 26-473 partner): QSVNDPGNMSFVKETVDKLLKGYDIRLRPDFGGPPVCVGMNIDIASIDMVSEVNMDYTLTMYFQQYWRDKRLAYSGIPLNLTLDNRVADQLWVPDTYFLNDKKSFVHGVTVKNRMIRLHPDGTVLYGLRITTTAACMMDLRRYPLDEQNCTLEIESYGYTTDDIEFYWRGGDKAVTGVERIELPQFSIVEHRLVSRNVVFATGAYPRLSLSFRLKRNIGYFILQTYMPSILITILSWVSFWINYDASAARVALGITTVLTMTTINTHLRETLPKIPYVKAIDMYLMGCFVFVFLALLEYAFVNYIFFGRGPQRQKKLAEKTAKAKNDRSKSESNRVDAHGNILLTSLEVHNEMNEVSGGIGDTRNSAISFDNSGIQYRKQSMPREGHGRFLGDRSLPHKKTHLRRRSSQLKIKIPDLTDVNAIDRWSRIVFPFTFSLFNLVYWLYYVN
- Sequence (Q99928 18-467): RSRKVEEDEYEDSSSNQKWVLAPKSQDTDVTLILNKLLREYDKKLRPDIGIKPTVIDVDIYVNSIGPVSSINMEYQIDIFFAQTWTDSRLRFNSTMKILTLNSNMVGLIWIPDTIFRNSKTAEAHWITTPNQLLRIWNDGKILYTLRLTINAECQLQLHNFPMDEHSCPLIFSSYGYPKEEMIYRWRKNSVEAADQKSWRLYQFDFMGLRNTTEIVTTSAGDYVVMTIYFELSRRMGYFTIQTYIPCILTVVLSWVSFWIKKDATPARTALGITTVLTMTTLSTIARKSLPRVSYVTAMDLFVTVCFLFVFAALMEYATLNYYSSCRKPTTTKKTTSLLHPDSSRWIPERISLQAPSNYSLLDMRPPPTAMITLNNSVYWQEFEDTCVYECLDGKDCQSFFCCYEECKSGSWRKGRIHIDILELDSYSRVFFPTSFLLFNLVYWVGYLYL
- METHOD DESCRIPTION: GABAA2 binding method ([3H]-flunitrazepam displacement)
- ASSAY CONTEXT: [3H]-flunitrazepam ~2 nM, Sf9 membranes, 1 hr at 4° C.
pKi: −log10 of the molar value.
EXPERIMENTAL READOUT: pKi

# annotated cases, reported pKi shown
CCCNC(=O)c1nnc2c(-c3cccnc3F)cccc2c1N : 8.95
CCCNC(=O)c1nnc2c(-c3c(F)cccc3OC)c(F)ccc2c1N : 9.47
CCCNC(=O)c1nnc2c(-c3cccc(F)c3OC)cccc2c1N : 7.96

I = CCCNC(=O)c1nnc2c(-c3cncc(OC)c3)cccc2c1N
II = CCCNC(=O)c1nnc2c(-c3ccc(OC)cc3F)c(F)ccc2c1N
III = CCCNC(=O)c1nnc2c(-c3cc(C)ccc3C)c(F)ccc2c1N
IV = CCCNC(=O)c1nnc2c(-c3cccc(C(=O)O)c3)cccc2c1N
Problem: Give the ascending ranking of the items by reported pKi. Answer format: the labels, ordered as requested.
Solution: IV, I, III, II
(IV: 7.27, I: 8.38, III: 8.88, II: 9.21)

I = CCCNC(=O)c1nnc2c(-c3cccc(OC)c3)cccc2c1N
II = CCCNC(=O)c1nnc2c(-c3cnccn3)cccc2c1N
Problem: Name the one with the greater pKi value, either I or II as given. When you have decided, please share the label of that item.
Solution: I
